Tested on: MDA-MB231-luc-D3H2LN cells
assayExplanation: Toxicity assay under normal cell culture conditions (MTS), MDA cells
Type: cell-based, human
testContext: MDA-MB231-luc-D3H2LN cells, MEM+10% FBS, 72 h incubation, MTS
readoutType: MDA tox: 50% tox. at (μM) av

Worked set:
- smilesText: "CCN(CC)CCCNC(=O)c1cccc(Nc2cccc(C(=O)N(C)c3ccncc3)c2)n1"
  testResult: ">>100 μM"
- smilesText: "CN(C(=O)c1cccc(Nc2cccc(C(=O)NCCCN3CCCCC3)c2)c1)c1ccncc1"
  testResult: ">100 µM"

Lab note: next molecule to report on.
# query: MDA tox: 50% tox. at (μM) av of entry "CN(C(=O)c1cccc(Nc2cccc(S(=O)(=O)NCCCN3CCCCC3)c2)c1)c1ccncc1"
>100 µM
